pIC50 overview
- SUBJECT_OF_TEST: mouse FAP (Mus musculus)
- Sequence (P97321 26-761): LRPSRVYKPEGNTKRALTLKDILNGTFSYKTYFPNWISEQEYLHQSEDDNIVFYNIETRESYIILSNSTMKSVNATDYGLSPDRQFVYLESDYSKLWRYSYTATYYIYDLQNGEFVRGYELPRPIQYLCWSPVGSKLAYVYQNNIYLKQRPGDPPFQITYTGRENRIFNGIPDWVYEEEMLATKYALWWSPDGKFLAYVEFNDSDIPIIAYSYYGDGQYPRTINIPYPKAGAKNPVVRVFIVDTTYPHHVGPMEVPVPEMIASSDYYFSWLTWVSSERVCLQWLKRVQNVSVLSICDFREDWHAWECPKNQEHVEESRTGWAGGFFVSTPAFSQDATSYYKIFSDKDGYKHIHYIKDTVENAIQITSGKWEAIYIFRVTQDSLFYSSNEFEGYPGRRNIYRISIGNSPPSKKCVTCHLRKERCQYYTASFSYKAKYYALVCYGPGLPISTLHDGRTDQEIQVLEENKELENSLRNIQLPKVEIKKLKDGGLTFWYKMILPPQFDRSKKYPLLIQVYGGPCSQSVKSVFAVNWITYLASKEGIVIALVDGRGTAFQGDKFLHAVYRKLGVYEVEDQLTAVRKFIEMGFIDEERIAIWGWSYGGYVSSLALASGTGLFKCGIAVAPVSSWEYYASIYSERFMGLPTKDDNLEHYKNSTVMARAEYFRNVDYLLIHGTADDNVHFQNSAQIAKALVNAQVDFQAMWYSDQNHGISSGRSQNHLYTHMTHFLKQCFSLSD
pIC50: −log10 of the molar value. Counter-ions that a name gives are not always drawn. Starred links: 1 amine or outer side, 2 acyl side, 3 side chain; linkers in the order of their positions; H or OH if unused. Non-standard residues stand in square brackets, D forms with d. Residues, ends and D or L forms follow the SMILES beside them. Groups on a side chain read outwards from the residue. *: point of attachment. X8 = O=C(O)CN1CCN(CC(=O)O)CCN(CC(=O)O)C(Cc2ccc(NC(=S)*)cc2)CN(CC(=O)O)CC1; NODAGA = O=C(O)CN1CCN(CC(=O)O)CCN(C(CCC(=O)*)C(=O)O)CC1; Trp(7-aza) = N[C@@H](Cc1c[nH]c2ncccc12)C(=O)O; NOTA = O=C(O)CN1CCN(CC(=O)O)CCN(CC(=O)*)CC1; Phe(4-CH2NH2) = NCc1ccc(C[C@H](N)C(=O)O)cc1; Piperazinyl(4-CH2COOH) = O=C(O)CN1CCN(*)CC1; 3Pal(6-NH2) = Nc1ccc(C[C@H](N)C(=O)O)cn1; AEF = NCCOc1ccc(C[C@H](N)C(=O)O)cc1; NMeCha = CN[C@@H](CC1CCCCC1)C(=O)O; NMeF = CN[C@@H](Cc1ccccc1)C(=O)O; Aoc(2) = CCCCCC[C@H](N)C(=O)O; Ahp(2) = CCCCC[C@H](N)C(=O)O; Cba = N[C@@H](CC1CCC1)C(=O)O; hSer = N[C@@H](CCO)C(=O)O; Orn = NCCC[C@H](N)C(=O)O; AEEA = NCCOCCOCC(=O)O; CO = O=C([*:1])[*:2]; Propyl = CCC*
READOUT: pIC50

INSERT INTO assay_data (compound, readout, numeric_value) VALUES
  ('CCCCCC[C@@H]1NC(=O)[C@H](Cc2ccc(CNC(=O)COCCOCCNC(=O)CN3CCN(CC(=O)O)CCN(CC(=O)O)CC3)cc2)NC(=O)[C@H](Cc2ccccc2)N(C)C(=O)CNC(=O)CNC(=O)[C@H]2CCCN2C(=O)[C@H](CC(=O)O)NC(=O)[C@H](CCCCNC(=O)N2CCN(CC(=O)O)CC2)NC(=O)CNC(=O)[C@H](Cc2c[nH]c3ccccc23)NC1=O [Example B40] (cyclo(GG[NMeF][Phe(4-CH2NH2)]([AEEA-NOTA])[Aoc(2)]WGK([CO-Piperazinyl(4-CH2COOH)])D[dP]))', 'pIC50', 10.92),
  ('CCCCC[C@@H]1NC(=O)[C@H](Cc2ccc(O)cc2)NC(=O)[C@H](CC2CCC2)NC(=O)CNC(=O)CNC(=O)[C@H]2CCCN2C(=O)[C@H](CC(=O)O)NC(=O)[C@H](Cc2ccc(O)cc2)NC(=O)CNC(=O)[C@H](Cc2c[nH]c3ccccc23)NC1=O [Example A60] (cyclo([Ahp(2)]WGYD[dP]GG[Cba]Y))', 'pIC50', 9.90),
  ('CCCOCC[C@@H]1NC(=O)[C@H](Cc2ccc(CNC(=O)COCCOCCNC(=S)Nc3ccc(CC4CN(CC(=O)O)CCN(CC(=O)O)CCN(CC(=O)O)CCN4CC(=O)O)cc3)cc2)NC(=O)[C@H](Cc2ccccc2)N(C)C(=O)CNC(=O)CNC(=O)[C@H]2CCCN2C(=O)[C@H](CC(=O)O)NC(=O)[C@H](CCCCNC(=O)N2CCN(CC(=O)O)CC2)NC(=O)CNC(=O)[C@H](Cc2c[nH]c3ccccc23)NC1=O (stereo partly shown) [Example B35] (cyclo(D[dP]GG[NMeF][Phe(4-CH2NH2)]([AEEA-X8])[hSer](Propyl)WGK([CO-Piperazinyl(4-CH2COOH)])))', 'pIC50', 10.26),
  ('CCCOCC[C@@H]1NC(=O)[C@H](Cc2ccc(CNC(=O)COCCOCCNC(=O)CCC(C(=O)O)N3CCN(CC(=O)O)CCN(CC(=O)O)CC3)cc2)NC(=O)[C@H](Cc2ccccc2)N(C)C(=O)CNC(=O)CNC(=O)[C@H]2CCCN2C(=O)[C@H](CC(=O)O)NC(=O)[C@H](CCCCNC(=O)N2CCN(CC(=O)O)CC2)NC(=O)CNC(=O)[C@H](Cc2c[nH]c3ccccc23)NC1=O (stereo partly shown) [Example B33] (cyclo(D[dP]GG[NMeF][Phe(4-CH2NH2)]([AEEA-NODAGA])[hSer](Propyl)WGK([CO-Piperazinyl(4-CH2COOH)])))', 'pIC50', 10.41),
  ('CCCOCC[C@@H]1NC(=O)[C@H](Cc2ccc(CNC(=O)COCCOCCNC(=O)CN3CCN(CC(=O)O)CCN(CC(=O)O)CC3)cc2)NC(=O)[C@H](Cc2ccccc2)N(C)C(=O)CNC(=O)CNC(=O)[C@H]2CCCN2C(=O)[C@H](CC(=O)O)NC(=O)[C@H](CCCCNC(=O)N2CCN(CC(=O)O)CC2)NC(=O)CNC(=O)[C@H](Cc2c[nH]c3ccccc23)NC1=O [Example B34] (cyclo(D[dP]GG[NMeF][Phe(4-CH2NH2)]([AEEA-NOTA])[hSer](Propyl)WGK([CO-Piperazinyl(4-CH2COOH)])))', 'pIC50', 10.77),
  ('CCCCC[C@@H]1NC(=O)[C@H](Cc2ccc(O)cc2)NC(=O)[C@H](CC2CCCCC2)N(C)C(=O)CNC(=O)[C@H](CCCCN)NC(=O)[C@H]2CCCN2C(=O)[C@H](CC(=O)O)NC(=O)[C@H](Cc2ccc(O)cc2)NC(=O)CNC(=O)[C@H](Cc2c[nH]c3ccccc23)NC1=O [Example A43, TFA salt] (cyclo([Ahp(2)]WGYD[dP]KG[NMeCha]Y))', 'pIC50', 9.72),
  ('CCCCC[C@@H]1NC(=O)[C@H](Cc2ccc(O)cc2)NC(=O)[C@H](Cc2ccccc2)N(C)C(=O)CNC(=O)CNC(=O)[C@H]2CCCN2C(=O)[C@H](CCC(=O)O)NC(=O)[C@H](Cc2ccc(O)cc2)NC(=O)CNC(=O)[C@H](Cc2c[nH]c3ccccc23)NC1=O [Example A71] (cyclo([Ahp(2)]WGYE[dP]GG[NMeF]Y))', 'pIC50', 9.21),
  ('CCCCC[C@@H]1NC(=O)[C@H](Cc2ccc(O)cc2)NC(=O)[C@H](Cc2ccccc2)N(C)C(=O)CNC(=O)CNC(=O)[C@H]2CCCN2C(=O)[C@H](CC(=O)O)NC(=O)[C@H](CCCNC(=O)N2CCN(CC(=O)O)CC2)NC(=O)CNC(=O)[C@H](Cc2c[nH]c3ccccc23)NC1=O [Example A4, TFA salt] (cyclo([Ahp(2)]WG[Orn]([CO-Piperazinyl(4-CH2COOH)])D[dP]GG[NMeF]Y))', 'pIC50', 9.24),
  ('CCCCC[C@@H]1NC(=O)[C@H](Cc2ccc(O)cc2)NC(=O)[C@H](Cc2ccccc2)N(C)C(=O)CNC(=O)[C@H](CCCCN)NC(=O)[C@H]2CCCN2C(=O)[C@H](CC(=O)O)NC(=O)[C@H](Cc2ccc(O)cc2)NC(=O)CNC(=O)[C@H](Cc2c[nH]c3ncccc23)NC1=O [Example A26, TFA salt] (cyclo([Ahp(2)][Trp(7-aza)]GYD[dP]KG[NMeF]Y))', 'pIC50', 8.80),
  ('CCCCC[C@@H]1NC(=O)[C@H](Cc2ccc(OCCN)cc2)NC(=O)[C@H](Cc2ccccc2)N(C)C(=O)CNC(=O)CNC(=O)[C@H]2CCCN2C(=O)[C@H](CC(=O)O)NC(=O)[C@H](Cc2ccc(N)nc2)NC(=O)CNC(=O)[C@H](Cc2c[nH]c3ccccc23)NC1=O [Example A45, TFA salt] (cyclo([AEF][Ahp(2)]WG[3Pal(6-NH2)]D[dP]GG[NMeF]))', 'pIC50', 9.03);
